ASSAYED_SYSTEM: T1, RacA FL (Bacillus subtilis, UniProt P45870 1-184)
T1 sequence: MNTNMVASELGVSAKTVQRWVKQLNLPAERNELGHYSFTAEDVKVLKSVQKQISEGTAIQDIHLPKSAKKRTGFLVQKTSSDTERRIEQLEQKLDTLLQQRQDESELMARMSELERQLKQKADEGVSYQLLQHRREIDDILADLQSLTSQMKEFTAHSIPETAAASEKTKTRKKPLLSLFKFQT
TEST_PROTOCOL: fluorescence polarization
MEASURED_ATTRIBUTE: Kd
# do not omit the unit; it follows the number

Recorded Kd for 14mer ram centromere site (FP) (dsDNA) DNA 1: TGACGCCGGCGTCA DNA 2: TGACGCCGGCGTCA , please?
58.4 nM
